Target: Inosine-5'-monophosphate dehydrogenase 2 (Homo sapiens, UniProt P12268)
MEASURED METRIC: pIC50
Numbers only, as −log10 of the molar value.

COMPOUND	pIC50
CCC(CC#N)OC(=O)N[C@@H](C)c1cccc(N2C(=O)CN(c3ccc(C#N)c(OC)c3)C2=O)c1 (some centres undefined)	4.60

Turning now to a further compound:
Using the record for CCC(CC#N)OC(=O)N[C@@H](C)c1cccc(NC(=O)Nc2ccc3c(c2)ncn3C)c1 (some centres undefined) , report its pIC50.
4.85

----------
Molecular target: Inosine-5'-monophosphate dehydrogenase 2 (Homo sapiens)
pIC50: −log10 of the molar value.
MEASURED METRIC: pIC50

State recorded pIC50 for all listed molecules.
1. CCC(CC#N)OC(=O)N[C@@H](C)c1cccc(NC(=O)NS(=O)(=O)c2ccc(OC)c(OC)c2)c1 (some centres undefined)
2. CCC(CC#N)OC(=O)N[C@@H](C)c1cccc(NC(=O)Nc2ccc(C3CCOCC3)c(OC)c2)c1 (some centres undefined)
3. CCC(CC#N)OC(=O)N[C@@H](C)c1cccc(NC(=O)Nc2ccc3ncc(OC)nc3c2)c1 (some centres undefined)

1: > 4.52; 2: > 4.52; 3: > 4.52

State recorded pIC50 for all listed molecules.
1. CCC(CC#N)OC(=O)N[C@@H](C)c1cccc(NCC(=O)Nc2ccc(OC)c(OC)c2)c1 (some centres undefined)
2. COc1cc(N/C(=N/C#N)Nc2cccc(-c3cccc(C#N)c3)c2)ccc1C#N
3. CCC(CC#N)OC(=O)N[C@@H](C)c1cccc(NC(=O)Nc2ccc3c(c2)OCO3)c1 (some centres undefined)
4. COc1cc(N/C(=N/C#N)Nc2cccc(-c3nnnn3C)c2)ccc1C#N
5. CCC(CC#N)OC(=O)N[C@@H](C)c1cccc(NC(=O)Nc2ccc3cc(OC)c(OC)cc3c2)c1 (some centres undefined)

["> 4.52", "> 4.52", "< 4.52", "> 4.52", "> 4.52"]

State recorded pIC50 for all listed molecules.
1. COc1cc(N/C(=N/C#N)Nc2cccc(OCC(=O)C(C)=O)c2)ccc1C#N
2. CCC(CC#N)OC(=O)N[C@@H](C)c1cccc(NC(=N)Nc2ccc(OC)c(OC)c2)c1 (some centres undefined)
3. COc1cc(N/C(=N/C#N)Nc2cccc(-c3cccc(C(=O)O)c3)c2)ccc1C#N
4. COc1cc(N/C(=N/C#N)Nc2cccc(-c3cccc(F)c3)c2)ccc1C#N
5. CCC(CC#N)OC(=O)N[C@@H](C)c1cccc(NC(=O)CNc2ccc(C#N)c(OC)c2)c1 (some centres undefined)
6. CCC(CC#N)OC(=O)N[C@@H](C)c1cccc(NC(=O)Nc2ccc3c(=O)cc(C)oc3c2)c1 (some centres undefined)

> 4.52
> 4.52
> 4.52
> 4.52
> 4.52
> 4.52

----------
Biological target: Inosine-5'-monophosphate dehydrogenase 2 (Homo sapiens)
MEASURED METRIC: pIC50
Give bare numbers, as −log10 of the molar value.

COMPOUND	pIC50
COc1cc(NC(=O)Nc2cccc(CNC(=O)OC3CCOC3)c2)ccc1-c1cnco1 (configuration not stated)	8.46
CCC(CC#N)OC(=O)N[C@@H](C)c1cccc(NC(=O)Nc2ccc3c(c2)OCC3)c1 (some centres not stated)	5.00
CCC(CC#N)OC(=O)N[C@@H](C)c1cccc(NC(=O)Nc2ccc(C)c(OC)c2)c1 (some centres not stated)	4.72

Using the record for CCC(CC#N)OC(=O)N[C@@H](C)c1cccc(NC(=O)Nc2ccc(C3=CCOCC3)c(OC)c2)c1 (some centres not stated) , report its pIC50.
5.46
